Every entry's value here was drawn from PubChem BioAssay.

# Measurement Description: PSAC antagonists in infected red cells, primary screen, cell-based, P. falciparum Indochina, OD700, 2 h (AID 1155);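 further: lysis reports solute entry through the parasite surface anion channel PSAC; channel blockers reduce lysis of infected cells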
# Cond: P. falciparum Indochina infected erythrocytes, osmotic lysis OD700; higher = more signal, called active from +8 up or from −8 down
Classify as follows. Reported z-score greater than or equal to -0.6: criterion met. Reported z-score below: criterion not met.

Please review the entries below; each comes with its answer.
{"Molecule": "C=CC[C@@H]1C=C[C@H](ON=C[C@@H](C)[C@H](OCc2ccccc2)C(C)C)[C@@H](CO)O1", "Assigned Class": "criterion met"}
{"Molecule": "O=C1[C@H]2[C@H]3[C@H](O)[C@H](O)CC(=NOCc4ccccc4)[C@@H]3CC[C@H]2C(=O)N1c1ccc(F)cc1F", "Assigned Class": "criterion met"}

Check this molecule for z-score at or above -0.6: `COC(=O)CC=C[C@@H](C)[C@@H](C=NO[C@@H](C)c1cn([C@H](CO)Cc2ccccc2)nn1)NS(=O)(=O)c1ccc(C)cc1` criterion not met

Exam item: decide whether the reported z-score for `COc1ccc(O[C@H]2C=C[C@@H](c3ccccc3)O[C@@H]2CON=C2[C@H]3CCn4c(=O)n(-c5ccccc5)c(=O)n4[C@H]3[C@H](O)[C@@H]3O[C@H]23)cc1` is at least -0.6. criterion met

Determine whether measured z-score meets or exceeds -0.6 for `COC(=O)[C@@H]1CC[C@H](C)[C@@H](c2ccc(C)cc2)N1C(=O)c1ccc(C=NOC[C@@H](C)[C@H](OCc2ccccc2)C(C)C)cc1` criterion not met

Is z-score at least -0.6? Consider `C[C@H]1CC[C@H]2C(=O)O[C@H](COc3ccc(C(C)(C)C)cc3)CN2[C@@H]1c1ccc(Br)cc1` criterion met

Could you tell me if the measured z-score of CC1O[C@H]2C3=C(C(=O)[C@@H]4O[C@@H]4[C@H]3O)[C@@H]1C1[C@@H](C)OC=C3[C@H](O)C4O[C@@H]4C(=NOCc4ccccc4)[C@]312 (some centres not stated) reaches -0.6 or more? criterion met
